This collection of values is drawn from the supplement of paper PMC7877785.

assay.details: self-splicing fitness, log relative to wild type (ln ratio); higher = more splicing; Tetrahymena group I intron in knt gene, E. coli kanamycin selection, DiMSum; sequences stand for … in CUCUCU…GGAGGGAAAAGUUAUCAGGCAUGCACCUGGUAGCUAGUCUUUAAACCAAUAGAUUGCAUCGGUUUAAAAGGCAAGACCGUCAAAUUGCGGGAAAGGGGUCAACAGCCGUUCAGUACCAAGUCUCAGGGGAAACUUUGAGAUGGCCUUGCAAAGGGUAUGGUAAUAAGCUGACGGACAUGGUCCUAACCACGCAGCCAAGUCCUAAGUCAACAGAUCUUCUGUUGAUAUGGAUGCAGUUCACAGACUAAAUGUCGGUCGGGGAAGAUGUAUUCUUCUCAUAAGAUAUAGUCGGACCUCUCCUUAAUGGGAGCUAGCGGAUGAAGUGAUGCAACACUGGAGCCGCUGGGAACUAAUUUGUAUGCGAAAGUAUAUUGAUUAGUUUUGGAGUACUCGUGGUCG;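 also: selection with 25 µg/mL kanamycin versus none on LB agar overnight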
condition.notes: 30 °C
measurement.type: self-splicing fitness (ln)
One number for each entry.

polymer_sequence=UACCAGCAAUAUUACGAUCG measurement_type="self-splicing fitness (ln)" observed_result=-0.0679
polymer_sequence=GCACAGCAAUAUUACGACUU measurement_type="self-splicing fitness (ln)" observed_result=-0.119
polymer_sequence=AUUUAGCAAUAUUACGCGAU measurement_type="self-splicing fitness (ln)" observed_result=-3.22
polymer_sequence=CUCUAGCAAUAUUACGCGGG measurement_type="self-splicing fitness (ln)" observed_result=-3.39

I need self-splicing fitness (ln) for every entry listed below, if you could help.
1. UUCAAGCAAUAUUACGGGUU
2. UUCUAGCAAUAUUACGCAUA
3. AUGUAGCAAUAUUACGGGAU

Result:
1: -2.38; 2: -0.852; 3: -1.9

I need self-splicing fitness (ln) for every entry listed below, if you could help.
1. GUACAGCAAUAUUACGGAGA
2. AUAAAGCAAUAUUACGAGUC
3. UCGAAGCAAUAUUACGAUAU
4. UUUUAGCAAUAUUACGACGA
5. AAGAAGCAAUAUUACGAAAC

Result:
[-3.87, -3.52, -2.63, -0.357, -1.82]

---

assay.details: self-splicing fitness, log relative to wild type (ln ratio); higher = more splicing; Tetrahymena group I intron in knt gene, E. coli kanamycin selection, DiMSum; sequences stand for … in CUCUCU…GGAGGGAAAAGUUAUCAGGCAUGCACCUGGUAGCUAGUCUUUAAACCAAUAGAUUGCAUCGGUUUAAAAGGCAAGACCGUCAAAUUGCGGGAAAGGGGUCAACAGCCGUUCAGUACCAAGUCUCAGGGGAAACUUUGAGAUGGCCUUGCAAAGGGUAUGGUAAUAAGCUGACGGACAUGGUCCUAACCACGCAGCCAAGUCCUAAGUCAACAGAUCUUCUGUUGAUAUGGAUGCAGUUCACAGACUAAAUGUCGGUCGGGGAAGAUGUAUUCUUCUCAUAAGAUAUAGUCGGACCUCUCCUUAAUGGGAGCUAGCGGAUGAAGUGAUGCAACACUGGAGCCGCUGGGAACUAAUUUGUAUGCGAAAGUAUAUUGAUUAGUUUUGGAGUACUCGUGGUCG
condition.notes: 37 °C
Is self-splicing fitness (ln) at least -2? Then true (1). If not, false (0).

Some entries whose results are on file:
polymer_sequence=CAUGAGCAAUAUUACGACUU category_label="false (0)"
polymer_sequence=CUCCAGCAAUAUUACGGAUG category_label="true (1)"
polymer_sequence=CAAAAGCAAUAUUACGUGUG category_label="true (1)"
polymer_sequence=GCAGAGCAAUAUUACGUCAG category_label="false (0)"
polymer_sequence=AGCAAGCAAUAUUACGUUAG category_label="false (0)"

Query: Determine whether this sequence has self-splicing fitness (ln) no lower than -2: `CUCUAGCAAUAUUACGAUCC`
Result: false (0)

Query: Determine whether this sequence has self-splicing fitness (ln) no lower than -2: `UAGCAGCAAUAUUACGGACG`
Result: true (1)

Query: Determine whether this sequence has self-splicing fitness (ln) no lower than -2: `GCGCAGCAAUAUUACGCGCC`
Result: false (0)

Query: Determine whether this sequence has self-splicing fitness (ln) no lower than -2: `CCAGAGCAAUAUUACGUCUC`
Result: false (0)

Query: Determine whether this sequence has self-splicing fitness (ln) no lower than -2: `CCGCAGCAAUAUUACGUUAC`
Result: false (0)

Query: Determine whether this sequence has self-splicing fitness (ln) no lower than -2: `GGACAGCAAUAUUACGACUC`
Result: true (1)

Query: Determine whether this sequence has self-splicing fitness (ln) no lower than -2: `UGAAAGCAAUAUUACGCCCC`
Result: true (1)
